Reference for the values: the supplement of paper PMC13380429

Here, each record is paired with measured drug sensitivity score data.
- Test system: Calu-3
- method notes: drug sensitivity score (DSS) for viability; higher = more toxic; extreme values may be limits of the assay
- condition summary: 72 h

{"columns": ["compound", "tested target", "drug sensitivity score"],
 "data": [
  ["CC[C@@H]1C(=O)N(C)c2cnc(Nc3ccc(C(=O)N[C@H]4CC[C@H](N5CCN(CC6CC6)CC5)CC4)cc3OC)nc2N1C(C)C", "Calu-3", 7],
  ["O=C(O)C1CN(Cc2ccc(-c3nc4cc(Cc5ccccc5F)ccc4s3)c(F)c2)C1", "Calu-3", 0],
  ["CCCCCCCCCCCCCCCCOc1nc2ccc(C)cc2c(=O)o1", "Calu-3", 0],
  ["O=C(Nc1ncc(SCCN2CCCC2)s1)[C@]1(c2ccc(S(=O)(=O)C3CC3)cc2)C[C@H]1C1CCCCC1", "Calu-3", 4.6],
  ["CC(C)C(=O)c1ccc(O)c(O)c1", "Calu-3", 0],
  ["CCOC(=O)C1=C(N)Oc2ccc(Br)cc2C1C(C#N)C(=O)OCC (centres undefined)", "Calu-3", 0],
  ["Oc1ccc([C@H]2COc3cc(O)ccc3C2)cc1", "Calu-3", 0],
  ["CC(C)n1cnc2c(C(=O)N[C@H]3CN4CCC3CC4)cc(Cl)cc21", "Calu-3", 0],
  ["Nc1nc(Nc2ccc(S(N)(=O)=O)cc2)nn1C(=O)c1c(F)cccc1F", "Calu-3", 2.6]
]}

---

Here, each record is paired with measured cell viability data.
- System: HepG2
- method notes: cell viability relative to DMSO; higher = less toxic
- condition summary: 72 h; 10 nM

{"columns": ["molecule", "cell viability"],
 "data": [
  ["OCCCNc1ccccc1 [3-anilinopropan-1-ol]", "101%"],
  ["O=C(/C=C\\n1cnc(-c2cc(C(F)(F)F)cc(C(F)(F)F)c2)n1)N1CC(F)(F)C1 [KPT-276]", "85.5%"],
  ["O=C(NCCN1CCN(c2ncccn2)CC1)C12CC3CC(CC(C3)C1)C2 [adatanserin]", "98%"],
  ["Cn1c(=O)[nH]c2ncn(C)c2c1=O [paraxanthine]", "100%"],
  ["COc1ccc(C(=O)/C(Cc2cc(OC)c(OC)c(OC)c2)=C(\\C(=O)O)c2ccc3c(c2)OCO3)cc1", "93.9%"],
  ["C[C@H](N[C@@H](CCc1ccccc1)C(=O)O)C(=O)N1Cc2ccccc2C[C@H]1C(=O)O [quinaprilat]", "94.9%"],
  ["Oc1ccc(-c2c(-c3ccccc3)nn3c(C(F)(F)F)cc(C(F)(F)F)nc23)cc1 [PHTPP]", "95.5%"],
  ["CN1CCc2cc(Cl)c(O)cc2[C@@H](c2ccccc2)C1", "96.3%"],
  ["NC(=O)c1cccc(-c2cc(Nc3ccc(OC(F)(F)F)cc3)ncn2)c1 [GNF-2]", "99.6%"]
]}

---

- System: Calu-3
- method notes: cell viability relative to DMSO; higher = less toxic
- condition summary: 72 h; 1 nM

{"columns": ["molecule", "quantity unit", "cell viability"],
 "data": [
  ["CCOc1nc2cccc(C(=O)OC(C)OC(=O)OC3CCCCC3)c2n1Cc1ccc(-c2ccccc2-c2nn[nH]n2)cc1 (stereo unspecified) [candesartan-cilexetil]", "%", 93.1],
  ["CN1CCN(c2c(F)cc3c(=O)c(C(=O)O)cn4c3c2SCC4)CC1 [rufloxacin]", "%", 92.1],
  ["C=CCc1cc(OC)c(O)c(C(=O)NCCO)c1 [alibendol]", "%", 93.6],
  ["CN1CCN(c2ccc3nc(-c4c(N)c5c(F)cccc5[nH]c4=O)[nH]c3c2)CC1 [dovitinib]", "%", 93.8],
  ["NC(=O)c1ccc(-c2nc(-c3ccc4c(c3)OCCO4)c(-c3ccccn3)[nH]2)cc1 [D-4476]", "%", 84.4],
  ["C[C@@H]1O[C@@H](O[C@H]2[C@H](Oc3cc(O)c4c(c3)O[C@H](c3ccc(O)cc3)CC4=O)O[C@H](CO)[C@@H](O)[C@@H]2O)[C@H](O)[C@H](O)[C@H]1O [Naringin (Naringoside)]", "%", 110],
  ["NCCCCCCCCCCNS(=O)(=O)c1cccc2c(Cl)cccc12 [A-7]", "%", 97.8],
  ["CCc1nc2ccc(Cl)cn2c1C(=O)NCc1ccc(N2CCC(c3ccc(OC(F)(F)F)cc3)CC2)cc1 [Q-203]", "%", 99.7],
  ["CCOC(=O)C1=C(C)NC(C)=C(C(=O)OC)C1c1cccc(Cl)c1Cl (stereo unspecified) [felodipine]", "%", 89.8],
  ["CCCCCCCCCCOc1cc2c(O)c(C(=O)OCC)cnc2cc1OCC [decoquinate]", "%", 99.8],
  ["CCOCCn1c(N2CCCN(C)CC2)nc2ccccc21 [emedastine]", "%", 94.2],
  ["O=S(=O)(c1cccc2c(Cl)cccc12)N1CCCNCC1 [ML9]", "%", 110],
  ["CC(C)(S)C(N)C(=O)O (stereo in doubt) [penicillamine-(racemic)]", "%", 95.7],
  ["OC[C@H]1O[C@@H](c2ccc(F)c(Cc3cc4ccccc4s3)c2)[C@H](O)[C@@H](O)[C@@H]1O [ipragliflozin-L-proline]", "%", 92.4],
  ["COc1cc2cc(c1Cl)N(C)C(=O)C[C@H](OC(=O)C(C)C)[C@]1(C)O[C@@H]1[C@H](C)[C@@H]1C[C@@](O)(NC(=O)O1)[C@H](OC)/C=C/C=C(\\C)C2 [ansamitocin-p-3]", "%", 62.6],
  ["Cc1nnsc1C(=O)Nc1ccc(-n2nc(C(F)(F)F)cc2C(F)(F)F)cc1", "%", 101]
]}

---

- Tested on: Caco-2
- method notes: cell viability relative to DMSO; higher = less toxic
- condition summary: 72 h; 1 nM
Here, each record is paired with measured cell viability data.

{"columns": ["compound", "tested target", "cell viability"],
 "data": [
  ["O=C1c2ccccc2C(Cc2ccnc(F)c2)(Cc2ccnc(F)c2)c2ccccc21 [DMP-543]", "Caco-2", "97.2%"],
  ["c1coc(CNc2ncnc3[nH]cnc23)c1 [kinetin]", "Caco-2", "111%"],
  ["CSc1nc(NC2CCCC2)c([N+](=O)[O-])c(NC2CCCC2)n1", "Caco-2", "99%"],
  ["O=C1Nc2ccccc2/C1=C1/Nc2ccccc2C1=O [indirubin]", "Caco-2", "101%"],
  ["Clc1cccc(SC2CCNCC2)n1 [anpirtoline]", "Caco-2", "93.1%"],
  ["Nc1nc(N)c2nc(-c3ccccc3)c(N)nc2n1 [triamterene]", "Caco-2", "104%"],
  ["CCOC(=O)C1=C(N)Oc2ccc(Br)cc2C1C(C#N)C(=O)OCC (stereo not given) [HA-14-1]", "Caco-2", "99%"],
  ["O=C(O)CNC(=O)c1ccccc1I [2-iodohippuric-acid]", "Caco-2", "103%"],
  ["CCCCCCCCCCOc1cc2c(O)c(C(=O)OCC)cnc2cc1OCC [decoquinate]", "Caco-2", "101%"],
  ["C[C@H](NC(=O)Cc1cc(F)cc(F)c1)C(=O)N[C@@H]1C(=O)N(C)c2ccccc2-c2ccccc21", "Caco-2", "89.5%"],
  ["O=C(O)c1ccc(Nc2ncc3c(n2)-c2ccc(Cl)cc2C(c2c(F)cccc2F)=NC3)cc1 [MLN8054]", "Caco-2", "94.4%"],
  ["OCCCNc1ccccc1 [3-anilinopropan-1-ol]", "Caco-2", "101%"],
  ["CCCN(CCC)[C@@H]1CCc2c(OC)cccc2[C@@H]1C [UH-232-(+)]", "Caco-2", "95.6%"],
  ["Cc1ccc2c(c1)c1c3n2CCNC3CCC1 (stereo not given) [pirlindole]", "Caco-2", "90.9%"],
  ["FC(F)(F)C(F)(F)C(F)(F)N(C(F)(F)C(F)(F)C(F)(F)F)C(F)(F)C(F)(F)C(F)(F)F [perfluamine]", "Caco-2", "98%"],
  ["CCc1cc(/C(C)=N/OCc2ccc(C3CCCCC3)c(C(F)(F)F)c2)ccc1CN1CC(C(=O)O)C1 [siponimod]", "Caco-2", "93.6%"],
  ["CN1C(=O)CC(c2ccccc2)C1=O (stereo not given) [phensuximide]", "Caco-2", "99.3%"],
  ["CC(C)NC(=O)N1CC[C@H](NC2=Nc3cc(F)ccc3N(CC(F)F)c3ccc(Cl)cc32)C1 [NVS-PAK1-1]", "Caco-2", "84.8%"],
  ["O=C(CC(c1ccccc1)c1ccccc1)N1CCN(C(c2ccccc2)c2ccccc2)CC1 [Z160]", "Caco-2", "99.9%"],
  ["COc1ccc(Cc2cnc(N)nc2N)cc1OC [diaveridine]", "Caco-2", "96.9%"]
]}

---

Here, each record is paired with measured cell viability data.
- Test system: HepG2
- method notes: cell viability relative to DMSO; higher = less toxic
- condition summary: 72 h; 10 nM

{"columns": ["compound", "quantity unit", "cell viability"],
 "data": [
  ["NC(=O)c1ccc(-c2nc(-c3ccc4c(c3)OCCO4)c(-c3ccccn3)[nH]2)cc1 [D-4476]", "%", 103],
  ["CCOC(CN1CCN(CC(C)C(=O)c2ccccc2)CC1)c1ccccc1 (stereo unspecified) [eprazinone]", "%", 96.7],
  ["CC(C)C[C@@H](C(=O)N[C@H](C(=O)OC1CCCC1)c1ccccc1)[C@H](O)C(=O)NO [tosedostat]", "%", 87.8],
  ["CC(=O)/N=c1/[nH]c(C)c(-c2ccc(Cl)c(S(=O)(=O)NCCO)c2)s1 [PIK-93]", "%", 92.7],
  ["C=CC(=O)Nc1cc2c(Nc3ccc(F)c(Cl)c3)ncnc2cc1OCCCN1CCOCC1 [canertinib]", "%", 97.6],
  ["COc1ccc([C@@H]2CC(=O)c3c(O)cc(O[C@@H]4O[C@H](CO[C@@H]5O[C@@H](C)[C@H](O)[C@@H](O)[C@H]5O)[C@@H](O)[C@H](O)[C@H]4O)cc3O2)cc1O [hesperidin]", "%", 109]
]}
